- Assay Comment: Log P by HPLC on reversed phase columns (EEC directive 79/831 Annex V.A8)
- Assay type: physicochemical
- Method: Measurement of Log P values was performed according to EEC directive 79/831 Annex V.A8 by HPLC (High Performance Liquid Chromatography) on reversed phase columns with the following methods: [^a] Log P value is determined by measurement of LC-UV, in an acidic range, with 0.1% formic acid in water and acetonitrile as eluent (linear gradient from 10% acetonitrile to 95% acetonitrile). [^b] […]
# LogP [a] listing for each entry below

Past entries and their recorded results:
{"Compound": "C#CCOc1cc(F)cc(F)c1Nc1c(-c2cc(OC)cc(OC)c2)c(C)nn1C", "LogP [a]": "2.85^[a]"}
{"Compound": "C#CCOc1cc(F)c(Nc2c(-c3ccc(F)cc3Cl)c(C)nn2C)cc1F", "LogP [a]": "3.33^[a];"}
{"Compound": "C=CCOc1ccc(N=C=S)cc1F", "LogP [a]": "4.06^[a]"}
{"Compound": "C#CCOc1ccccc1Nc1c(-c2ccc(F)cc2Cl)c(C)nn1C", "LogP [a]": "3.53^[a]"}
{"Compound": "C#CCOc1ccc(-c2c(C)nn(C)c2Nc2c(F)cc(OCC#C)cc2F)c(F)c1", "LogP [a]": "2.77^[a]"}
{"Compound": "C=CCOc1ccc(C#N)cc1N=C=S", "LogP [a]": "3.71^[a]"}

Task: May I ask what LogP [a] has been recorded for `C#CCOc1cc(F)c(N=C=S)cc1F` ?
Result: 3.64^[a]

Task: May I ask what LogP [a] has been recorded for `C#CCOc1cc(F)cc(F)c1Nc1c(-c2c(F)cc(F)cc2F)c(C)nn1C` ?
Result: 3.10^[a]

Task: May I ask what LogP [a] has been recorded for `C#CCOc1cc(C)ccc1Nc1c(-c2ccc(Cl)cc2Cl)c(C)nn1C` ?
Result: 4.30^[a]

Task: May I ask what LogP [a] has been recorded for `C=CCOc1ccccc1Nc1c(-c2ccc(F)cc2Cl)c(C)nn1C` ?
Result: 3.99^[a]

Task: May I ask what LogP [a] has been recorded for `C#CCOc1ccc(F)cc1N=C=S` ?
Result: 3.62^[a]

Task: May I ask what LogP [a] has been recorded for C#CCOc1cc(F)cc(F)c1NC(=S)C(C(C)=O)c1ccc(F)cc1Cl (stereo not shown) ?
Result: 3.65^[a]

Task: May I ask what LogP [a] has been recorded for `C#CCOc1ccc(Nc2c(-c3ccc(F)cc3Cl)c(C)nn2C)cc1` ?
Result: 3.09^[a];

Task: May I ask what LogP [a] has been recorded for `C=CCOc1cc(F)c(Nc2c(-c3ccc(Cl)cc3Cl)c(C)nn2C)c(F)c1` ?
Result: 3.97^[a]

Task: May I ask what LogP [a] has been recorded for `C=CCOc1ccc(Nc2c(-c3ccc(F)cc3Cl)c(C)nn2C)cc1F` ?
Result: 3.61^[a];

Task: May I ask what LogP [a] has been recorded for `C#CCOc1ccc(N=C=S)c(Cl)c1` ?
Result: 3.99

Task: May I ask what LogP [a] has been recorded for `C=CCOc1ccc(F)cc1Nc1c(-c2ccc(F)cc2Br)c(C)nn1C` ?
Result: 4.08^[a]

Task: May I ask what LogP [a] has been recorded for `C#CCOc1cc(F)c(Nc2c(-c3ccc(OCC=C)cc3F)c(C)nn2C)c(F)c1` ?
Result: 3.17^[a]

Task: May I ask what LogP [a] has been recorded for `C#CCOc1ccc(-c2c(C)nn(C)c2Nc2c(F)cc(F)cc2OCC#C)c(F)c1` ?
Result: 2.88^[a]

Task: May I ask what LogP [a] has been recorded for `C#CCOc1ccccc1Nc1c(-c2ccc(F)cc2Br)c(C)nn1C` ?
Result: 3.60^[a]

Task: May I ask what LogP [a] has been recorded for `C=CCOc1cc(F)c(Nc2c(-c3ccc(F)cc3F)c(C)nn2C)c(F)c1` ?
Result: 3.33^[a]

Task: May I ask what LogP [a] has been recorded for `C=CCOc1cc(F)c(Nc2c(-c3ccc(F)cc3Cl)c(C)nn2C)c(F)c1` ?
Result: 3.54^[a];

Task: May I ask what LogP [a] has been recorded for `C#CCOc1ccc(F)c(Nc2c(-c3ccc(F)cc3Cl)c(C)nn2C)c1` ?
Result: 3.33^[a];
